Attribution: ChEMBL document CHEMBL3286239

Experiment: Cytotoxicity against human HEK293 cells as inhibition of cell viability at 80 uM after 24 hrs by MTT assay
Assay type: cell-based
Conditions: HEK293 cells, read-out: INH

structure-smiles-string	unit-text	cytotoxicity at 24 h, 80 µM
COc1ccc(C(=O)N2CC(C(=O)NCCc3cccc4ccc(OC)cc34)C2)cc1	%	8.9
COc1ccc2cccc(CCNC(=O)C3CN(C(=O)OCc4ccccc4)C3)c2c1	%	1
COc1ccc2cccc(CCNC(=O)C3CN(S(C)(=O)=O)C3)c2c1	%	8.5
COc1ccc2cccc(CCNC(=O)C3CN(C(=O)c4cc([N+](=O)[O-])cc([N+](=O)[O-])c4)C3)c2c1	%	11.1
COc1ccc2cccc(CCNC(=O)C3CN(C(=O)c4ccc(Cl)cc4)C3)c2c1	%	11.8
